Provenance of the data: PubChem BioAssay AID1918991

tested on: 186277-243-T-J2-PDC complex spheroid growth; assay: Anticancer human tumor 186277-243-T-J2-PDC patient-derived colon adenocarcinoma cell line growth inhibition [AhR]; conditions: second compound 1 µM; first compound 10 µM; active = viability on the fitted dose curve at most 10% of control; inactive = the rest
Labels: yes (active), no (inactive)

Compound	Class Label
COc1cc(Nc2ncc3c(n2)-c2ccc(Cl)cc2C(c2c(F)cccc2OC)=NC3)ccc1C(=O)O + CC(CO)NC(=O)c1cc(-c2ccc(Cl)cc2)nn(-c2cnn(C)c2)c1=O	no
COc1cc(Nc2ncc3c(n2)-c2ccc(Cl)cc2C(c2c(F)cccc2OC)=NC3)ccc1C(=O)O + Cc1ccccc1N=Nc1ccc(NC(=O)c2ccnn2C)c(C)c1	no
COc1cccc2c1C(=O)c1c(O)c3c(c(O)c1C2=O)CC(O)(C(=O)CO)CC3OC1CC(N)C(O)C(C)O1 (stereo not drawn) + Cc1ccccc1N=Nc1ccc(NC(=O)c2ccnn2C)c(C)c1	yes

----------
Overview of reported viability, T/C across a group of compounds:
test system: 186277-243-T-J2-PDC complex spheroid growth; assay: Anticancer human tumor 186277-243-T-J2-PDC cell line growth inhibition [AhR]; conditions: second compound 3.16 µM; first compound 0.0316 µM; stronger effect = lower value;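 also: luminescent signal used as a stand-in for viable cell amount; spheroids exposed to compounds for seven days before the viability read; 100% = DMSO vehicle control wells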

Compound	Target System	viability, T/C, %
CC(C)c1c(-c2ccccc2)nc2c(C#N)c[nH]n2c1=O + Cc1ccccc1N=Nc1ccc(NC(=O)c2ccnn2C)c(C)c1	186277-243-T-J2-PDC complex spheroid growth	95.2
Nc1ccccc1NC(=O)c1ccc(CNC(=O)OCc2cccnc2)cc1 + Cc1ccccc1N=Nc1ccc(NC(=O)c2ccnn2C)c(C)c1	186277-243-T-J2-PDC complex spheroid growth	93.9
COc1cc(C2c3cc4c(cc3C(OC3OC5COC(C)OC5C(O)C3O)C3COC(=O)C23)OCO4)cc(OC)c1O (stereo unspecified) + Cc1cncc(-c2nc(NCCc3c[nH]c4ccccc34)c3ncn(C(C)C)c3n2)c1	186277-243-T-J2-PDC complex spheroid growth	127
NS(=O)(=O)OCC1CC(n2ccc3c(NC4CCc5ccccc54)ncnc32)CC1O (stereo unspecified) + CC(CO)NC(=O)c1cc(-c2ccc(Cl)cc2)nn(-c2cnn(C)c2)c1=O	186277-243-T-J2-PDC complex spheroid growth	78.3
O=C(c1cc(Cc2n[nH]c(=O)c3ccccc23)ccc1F)N1CCN(C(=O)C2CC2)CC1 + Cc1cncc(-c2nc(NCCc3c[nH]c4ccccc34)c3ncn(C(C)C)c3n2)c1	186277-243-T-J2-PDC complex spheroid growth	115
NS(=O)(=O)OCC1CC(n2ccc3c(NC4CCc5ccccc54)ncnc32)CC1O (stereo unspecified) + Cc1cncc(-c2nc(NCCc3c[nH]c4ccccc34)c3ncn(C(C)C)c3n2)c1	186277-243-T-J2-PDC complex spheroid growth	91.8

----------
tested on: 186277-243-T-J2-PDC complex spheroid growth; test: Anticancer human tumor 186277-243-T-J2-PDC cell line growth inhibition [AhR]; conditions: second compound 0.1 µM; first compound 0.00316 µM; stronger effect = lower value;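 also: luminescent signal used as a stand-in for viable cell amount; spheroids exposed to compounds for seven days before the viability read; 100% = DMSO vehicle control wells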
Observed Property: viability, T/C (%)

Compound	Observed Property	Display Unit	Measurement
CC1COCCN1c1cc(-c2ccnn2C)c2ccnc(-c3ccn[nH]3)c2n1 (configuration not stated) + Cc1cncc(-c2nc(NCCc3c[nH]c4ccccc34)c3ncn(C(C)C)c3n2)c1	viability, T/C	%	99
Cn1ncnc1C1c2n[nH]c(=O)c3cc(F)cc(c23)NC1c1ccc(F)cc1 (configuration not stated) + CC(CO)NC(=O)c1cc(-c2ccc(Cl)cc2)nn(-c2cnn(C)c2)c1=O	viability, T/C	%	102
Cn1ncnc1C1c2n[nH]c(=O)c3cc(F)cc(c23)NC1c1ccc(F)cc1 (configuration not stated) + Cc1cncc(-c2nc(NCCc3c[nH]c4ccccc34)c3ncn(C(C)C)c3n2)c1	viability, T/C	%	100
CC1COCCN1c1cc(-c2ccnn2C)c2ccnc(-c3ccn[nH]3)c2n1 (configuration not stated) + CC(CO)NC(=O)c1cc(-c2ccc(Cl)cc2)nn(-c2cnn(C)c2)c1=O	viability, T/C	%	100
Nc1ncn(C2CC(O)C(CO)O2)c(=O)n1 (configuration not stated) + CC(CO)NC(=O)c1cc(-c2ccc(Cl)cc2)nn(-c2cnn(C)c2)c1=O	viability, T/C	%	110
Nc1ncn(C2CC(O)C(CO)O2)c(=O)n1 (configuration not stated) + Cc1cncc(-c2nc(NCCc3c[nH]c4ccccc34)c3ncn(C(C)C)c3n2)c1	viability, T/C	%	116
CC[C@@]1(O)C(=O)OCc2c1cc1n(c2=O)Cc2cc3c(CN(C)C)c(O)ccc3nc2-1 + Cc1cncc(-c2nc(NCCc3c[nH]c4ccccc34)c3ncn(C(C)C)c3n2)c1	viability, T/C	%	118
CC1COCCN1c1cc(-c2ccnn2C)c2ccnc(-c3ccn[nH]3)c2n1 (configuration not stated) + Cc1ccccc1N=Nc1ccc(NC(=O)c2ccnn2C)c(C)c1	viability, T/C	%	99.9
CC[C@@]1(O)C(=O)OCc2c1cc1n(c2=O)Cc2cc3c(CN(C)C)c(O)ccc3nc2-1 + Cc1ccccc1N=Nc1ccc(NC(=O)c2ccnn2C)c(C)c1	viability, T/C	%	107
CC[C@@]1(O)C(=O)OCc2c1cc1n(c2=O)Cc2cc3c(CN(C)C)c(O)ccc3nc2-1 + CC(CO)NC(=O)c1cc(-c2ccc(Cl)cc2)nn(-c2cnn(C)c2)c1=O	viability, T/C	%	89.5
Nc1ncn(C2CC(O)C(CO)O2)c(=O)n1 (configuration not stated) + Cc1ccccc1N=Nc1ccc(NC(=O)c2ccnn2C)c(C)c1	viability, T/C	%	115
Cn1ncnc1C1c2n[nH]c(=O)c3cc(F)cc(c23)NC1c1ccc(F)cc1 (configuration not stated) + Cc1ccccc1N=Nc1ccc(NC(=O)c2ccnn2C)c(C)c1	viability, T/C	%	107
